# Test system: OVCAR-8
# assayName: NCI tumour cell line growth inhibition, 48 h
The source made the active and inactive calls. Cut-off read from the data, not from the text of the source: active = GI50 up to about 1.1 µM and inactive = higher.
measuredMetric: GI50

Notebook: pull reported GI50 for OVCAR-8, entry `CN(C)/C=N\c1ccn(CCO)c(=O)n1`
> 100 µM (inactive)

Notebook: pull reported GI50 for OVCAR-8, entry `NS(=O)(=O)c1nnc(NS(=O)(=O)c2ccc(Cl)cc2)s1`
> 100 µM (inactive)

Notebook: pull reported GI50 for OVCAR-8, entry `COc1cc(/C=C/c2csnn2)cc(OC)c1OC`
> 100 µM (inactive)

Notebook: pull reported GI50 for OVCAR-8, entry `Cc1nc2c(c(=O)[nH]1)S/C(=C(/C#N)c1nc3ccccc3[nH]1)N2c1ccccc1`
> 100 µM (inactive)

Notebook: pull reported GI50 for OVCAR-8, entry COc1ccc(/N=N/C(=O)NC(CC(C)C)C(=O)NC(C)C(=O)O)cc1 (centres undefined)
> 43.1 µM (inactive)

Notebook: pull reported GI50 for OVCAR-8, entry `O=c1c2ccccc2n2c(-c3ccccc3O)nnc2n1-c1ccccc1`
> 100 µM (inactive)

Notebook: pull reported GI50 for OVCAR-8, entry `C[C@H]1C[C@H]2[C@@H]3C(C)(C)O[C@]4(O)C(=O)[C@]5(O)[C@@H](C)CC[C@H]1[C@]25C(=O)[C@]34C`
63.7 µM (inactive)

Notebook: pull reported GI50 for OVCAR-8, entry COc1ccc(N2C(Cl)C(=O)C2c2c[nH]c3ccccc23)cc1 (centres undefined)
> 100 µM (inactive)

Notebook: pull reported GI50 for OVCAR-8, entry C=Cc1c(C)c2cc3nc(c4c5[nH]c(cc6nc(cc1[nH]2)C(C)=C6CC)c(C)c5C(=O)C4C(=O)OC)C(CCC(=O)OC)C3C (centres undefined)
> 100 µM (inactive)

* * *

# System: OVCAR-8
# assayName: NCI tumour cell line growth inhibition, 48 h
Activity calls are given as the source filed them. Cut-off read from the data, not from the text of the source: active = GI50 up to about 1.1 µM and inactive = higher.
Returns: one label drawn from 1 = active, -1 = inactive

COC(=O)C(/C(=N/NC(N)=O)C(=O)Nc1ccc(C)cc1)c1nc2ccc([N+](=O)[O-])cc2nc1O (stereo not drawn) :: -1

For `Cc1ccccc1-c1cc(=O)c2cc(C)c(C)c(C(=O)O)c2o1` , which call appears in the assay record?
-1

For `CC1=C(c2ccccc2)CON(c2ccccc2)C1` , which call appears in the assay record?
-1

For CCOC(=O)C(Cl)(NC(=O)c1ccc(F)cc1)C(F)(F)F (stereo not drawn) , which call appears in the assay record?
-1

For Cc1ccc(S(=O)(=O)N2CCCCC2CCO)cc1 (stereo not drawn) , which call appears in the assay record?
-1

For `Clc1ccc(Cc2nc3cc(CCN4CCN(c5ccccc5)CC4)ccc3[nH]2)cc1` , which call appears in the assay record?
-1

* * *

# System: SNB-19
# assayName: NCI tumour cell line growth inhibition, 48 h
Calls of active or inactive are those of the source. Cut-off read from the data, not from the text of the source: active = GI50 up to about 1.1 µM and inactive = higher.
GI50 reference

Consider the following illustrative entries.
CC1CCC(=O)C(C(=O)CC2CC(=O)N(C)C(=O)C2)C1 (stereo unspecified) :: > 100 µM (inactive)
CCCCN(c1ccccc1)c1ncnc2c1cnn2C :: 89.9 µM (inactive)
O=c1[nH]c(=O)n(C2OC3COC2C3O)cc1F (stereo unspecified) :: > 100 µM (inactive)

Form field: reported GI50 of COC(=O)C1Cc2c(n(Cc3ccccc3)c3ccccc23)C(CCC(=O)O)N1C(C)C (stereo unspecified)
> 100 µM (inactive)

Form field: reported GI50 of `CCn1c(-c2c(Cl)cc(O)cc2Cl)cc2c(Cl)cc(O)cc21`
8.47 µM (inactive)

* * *

# Tested on: A498
# assayName: NCI tumour cell line growth inhibition, 48 h
Activity calls are given as the source filed them. Rule as the data show it: active = GI50 up to about 1.1 µM and inactive = higher.
GI50 reference

Nc1ncc(Cl)c(NCC2(CO)CC(CCc3ccccc3)C2)n1 (centres undefined) :: > 100 µM (inactive)
O=C1OC2(CC1C1(O)C3CC4CC(C3)CC1C4)C1CC3CC(C1)CC2C3 (centres undefined) :: 28.1 µM (inactive)
CN/C(=N\n1cnnc1)OC :: > 100 µM (inactive)

Please turn your attention to the following entry.
Form field: reported GI50 of `C1CCC(N=C2N(C3CCCCC3)C(=NC3CCCCC3)N2C2CCCCC2)CC1`
> 10 µM (inactive)

* * *

# Tested on: SK-OV-3
# assayName: NCI tumour cell line growth inhibition, 48 h
Active and inactive are the calls of the source. Cut-off read from the data, not from the text of the source: active = GI50 up to about 1.1 µM and inactive = higher.
GI50 reference

Form field: reported GI50 of CN1N=C2c3ccccc3CC[C@H]2C1c1cccc(O)c1 (stereo not given in full)
> 100 µM (inactive)

Form field: reported GI50 of CC(=O)SC(C[N+](=O)[O-])c1ccccc1 (stereo not given)
13.3 µM (inactive)

Form field: reported GI50 of CC(=O)OC1COC(Nc2ccc(C(C)=O)cc2)C(OC(C)=O)C1OC(C)=O (stereo not given)
> 100 µM (inactive)

Form field: reported GI50 of `C=C1CC[C@H](O)C(C)(C)[C@@H]1CC/C(C)=C/CC/C=C(\C)CC/C=C(\C)CCC=C(C)C`
> 100 µM (inactive)

Form field: reported GI50 of COC1OC2COC1(OCc1ccccc1)C1OC(C)(C)OC21 (stereo not given)
> 100 µM (inactive)

Form field: reported GI50 of `CC(C)(C)NC(NC(C)(C)C)=C(/C=C(/Cl)[N+](=O)[O-])[N+](=O)[O-]`
> 100 µM (inactive)

Form field: reported GI50 of `CCOC(=O)CC(=O)C(=O)NN=C1NCCN1`
> 100 µM (inactive)

* * *

# Test system: A498
# assayName: NCI tumour cell line growth inhibition, 48 h
Active and inactive are the calls of the source. No stated cut-off is given here; in the data, active = GI50 up to about 1.1 µM and inactive = higher. Starred links: 1 amine or outer side, 2 acyl side, 3 side chain; linkers in the order of their positions; H or OH if unused. Positions of bridges follow the written chain, without caps; N, C: chain ends. Non-standard residues stand in square brackets, D forms with d. Residues, ends and D or L forms follow the SMILES beside them. Chains are numbered I, II in the order given. Actinocin(9to1) = Cc1c2oc3c(C)ccc(C(=O)[*:1])c3nc-2c(C(=O)[*:2])c(N)c1=O; NMeF = CN[CH](Cc1ccccc1)C(=O)O; Sar = CNCC(=O)O
Returns: one label drawn from T for active, F for inactive

Previously resolved entries follow.
CCCn1cnc2c(/N=N/O)ncnc21 :: F
Cc1c2oc3c(C)ccc(C(=O)NC4C(=O)NC(C(C)C)C(=O)N5CCCC5C(=O)N(C)CC(=O)N(C)C(Cc5ccccc5)C(=O)OC4C)c3nc-2c(C(=O)NC2C(=O)NC(C(C)C)C(=O)N3CCCC3C(=O)N(C)CC(=O)N(C)C(Cc3ccccc3)C(=O)OC2C)c(N)c1=O (stereo not given) (I: TVP[Sar][NMeF] / II: TVP[Sar][NMeF]; ester I:1-I:C, II:1-II:C; linker I:N-II:N via Actinocin(9to1); configuration not given here) :: T
COc1ccc(C2=NN=C3C(c4ccccc4)=Nc4ccccc4N3C2)cc1 :: F

For `CCOC(=O)CN1C(=O)c2cccc3cc([N+](=O)[O-])cc(c23)C1=O` , which call appears in the assay record?
F

For CCCCCn1cc2c3c(cccc31)C1C=C(C)CN(C)[C@@H]1C2.Cc1ccc(C(=O)OC(C(=O)O)C(OC(=O)c2ccc(C)cc2)C(=O)O)cc1 (stereo not given) , which call appears in the assay record?
F

* * *

# System: OVCAR-5
# assayName: NCI tumour cell line growth inhibition, 48 h
Active and inactive are the calls of the source. Cut-off read from the data, not from the text of the source: active = GI50 up to about 1.1 µM and inactive = higher.
measuredMetric: GI50

CCn1c(=O)c2ccccc2n2c(=O)c3cc4ccccc4cc3nc12 :: > 100 µM (inactive)
COC(=O)/C(=N/NC(N)=O)C(C(=O)OC)C(=O)C(=O)Nc1ccc(Cl)cc1 (configuration not stated) :: > 100 µM (inactive)

Form field: reported GI50 of `C1CCC(N=C2N(C3CCCCC3)C(=NC3CCCCC3)N2C2CCCCC2)CC1`
> 100 µM (inactive)

Form field: reported GI50 of COc1ccc(N2C(Cl)C(=O)C2c2c[nH]c3ccccc23)cc1 (configuration not stated)
80.9 µM (inactive)

Form field: reported GI50 of CC(=O)OCC1OC(OCCCOP(=O)(OCCC#N)OCC2OC(n3cnc4c(N)ncnc43)C(OC(=O)c3ccccc3)C2OC(=O)c2ccccc2)C(OC(C)=O)C(OC(C)=O)C1OC(C)=O (configuration not stated)
> 100 µM (inactive)

* * *

# Tested on: TK-10
# assayName: NCI tumour cell line growth inhibition, 48 h
Active and inactive are the calls of the source. Rule as the data show it: active = GI50 up to about 1.1 µM and inactive = higher.
Returns: one label drawn from active, inactive

C/C(=N\NC(=S)Nc1ccc(Cl)cc1)c1nc2cccnc2[nH]1 :: active
C=C1CC[C@H](O)C(C)(C)[C@@H]1CC/C(C)=C/CC/C=C(\C)CC/C=C(\C)CCC=C(C)C :: inactive
O=C(c1ccccc1)C(Nc1ccc2ccccc2c1)c1ccccc1 (stereo not drawn) :: inactive
OC(c1ccc(-c2ccccc2)cc1)(c1ccc(-c2ccccc2)cc1)c1ccc(-c2ccccc2)cc1 :: inactive

Lab note: next compound to report on.
For `COC1=C2C[C@@H](C)C[C@@H](OC)[C@@H](O)[C@H](C)/C=C(\C)[C@@H](OC(N)=O)[C@H](OC)/C=C\C=C(/C)C(=O)NC(=CC1=O)C2=O` , which call appears in the assay record?
active
